# ASSAYED_TARGET: BTK, recombinant human catalytic domain (aa 393-659) (Homo sapiens (Human), UniProt Q06187)
# Sequence (Q06187 393-659): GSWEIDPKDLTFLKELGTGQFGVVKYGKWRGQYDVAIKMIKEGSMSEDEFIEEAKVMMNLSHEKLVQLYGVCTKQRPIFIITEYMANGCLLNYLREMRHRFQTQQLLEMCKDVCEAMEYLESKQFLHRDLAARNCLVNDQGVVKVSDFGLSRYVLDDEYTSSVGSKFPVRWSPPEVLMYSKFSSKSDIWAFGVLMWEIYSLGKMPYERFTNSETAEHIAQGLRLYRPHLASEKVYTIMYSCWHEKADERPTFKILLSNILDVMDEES
# MEASUREMENT_DESCRIPTION: In vitro BTK kinase activity measured by time-resolved fluorescence resonance energy transfer (trFRET)
# Assay type: biochemical
# RECORDED_CONDITIONS: read-out: Btk IC50
ATTRIBUTE_MEASURED: IC50

C=CC(=O)N1CCC[C@@H](c2ccc(C(N)=O)c3[nH]c(C)cc23)C1 [E.9.7]    < 0.1 µM
CS(=O)(=O)N1CC=C(c2cc3c(N4CCC[C@@H](n5ccn6ccnc6c5=O)C4)ccc(C(N)=O)c3[nH]2)CC1 [O.1.4*]    < 0.1 µM
C=CC(=O)N1CC([C@@H](C)c2ncc(C(N)=O)c3[nH]ccc23)C1 [E.9.28]    < 0.1 µM
Cn1cc(-c2cc3c(N4CCC[C@@H](NC(=O)c5ccc(C6CC6)cc5)C4)ccc(C(N)=O)c3[nH]2)cn1 [O.1.25*]    < 0.1 µM

Give me IC50 for each of these compounds, listed below.
1. C=CC(=O)NCc1ccccc1-c1ccc(C(N)=O)c2[nH]c(C3=CCN(S(C)(=O)=O)CC3)cc12 [E.1.1]
2. C=CC(=O)N1CCC[C@H](c2ncc(C(N)=O)c3[nH]ccc23)C1 [E.9.33]
3. C=CC(=O)N1CC(N(C)c2ccc(C(N)=O)c3[nH]c(-c4cnc5c(c4)COCC5)cc23)C1 [E.9.11]
4. Cc1c(NC(=O)/C=C\C(N)=O)cccc1-c1ccc(C(N)=O)c2[nH]c(C3=CCN(S(C)(=O)=O)CC3)cc12 [D.7.10]
5. C=CC(=O)N[C@@H]1CCCN(c2ccc(C(N)=O)c3[nH]c(C4=CCN(S(C)(=O)=O)CC4)cc23)C1 [E.1.11*]
6. Cc1c(NC(=O)/C=C/CN(C)C)cccc1-c1ccc(C(N)=O)c2[nH]c(C3=CCN(S(C)(=O)=O)CC3)cc12 [D.7.2]
7. C=CC(=O)N1C[C@@H]2CN(c3ccc(C(N)=O)c4[nH]ccc34)C[C@@H]21 [E.9.43]
8. C=CC(=O)N1CC(N(C)c2ccc(C(N)=O)c3[nH]c(C4CCOC4)cc23)C1 (stereo not shown) [E.9.21]

Result:
1: < 0.1 µM; 2: 0.1 to 1 µM; 3: < 0.1 µM; 4: < 0.1 µM; 5: < 0.1 µM; 6: < 0.1 µM; 7: 0.1 to 1 µM; 8: < 0.1 µM

Would you mind giving IC50 for every compound in the list below?
1. Cc1ccc(-c2cc3c(-c4ccccn4)ccc(C(N)=O)c3[nH]2)cc1 [U.1.3]
2. Cc1c(NC(=O)C2CCN(C)CC2)cccc1-c1ccc(C(N)=O)c2[nH]c(C3=CCN(S(C)(=O)=O)CC3)cc12 [D.7.36]
3. C=CC(=O)N1CC(N(C)c2ccc(C(N)=O)c3[nH]c(C4CCN(CCC)CC4)cc23)C1 [E.9.20]
4. C=CC(=O)Nc1cc(-c2ccc(C(N)=O)c3[nH]ccc23)ccc1F [E.1.23]

Result:
["0.1 to 1 µM", "< 0.1 µM", "< 0.1 µM", "< 0.1 µM"]
